# tested.target: hSTING (Homo sapiens, UniProt Q86WV6, G230A/H232R/R293Q/R71H)
# Sequence (Q86WV6 whole entry R71H/G230A/H232R/R293Q): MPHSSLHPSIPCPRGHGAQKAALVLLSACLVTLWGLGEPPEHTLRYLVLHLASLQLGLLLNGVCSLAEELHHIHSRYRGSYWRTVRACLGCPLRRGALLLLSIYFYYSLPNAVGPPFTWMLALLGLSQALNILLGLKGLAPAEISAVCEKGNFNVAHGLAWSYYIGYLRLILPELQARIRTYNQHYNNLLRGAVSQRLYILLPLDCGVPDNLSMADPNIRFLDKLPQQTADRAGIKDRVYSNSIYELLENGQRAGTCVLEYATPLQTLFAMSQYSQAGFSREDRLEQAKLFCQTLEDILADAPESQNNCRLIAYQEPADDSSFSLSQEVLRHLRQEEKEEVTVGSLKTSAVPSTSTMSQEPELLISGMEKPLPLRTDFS
# method.summary: STING reporter assay (luciferase) in THP1-Dual KO-IFNAR2 cells stimulated with 2'3'cGAMP
# test.parameters: 2'3'cGAMP 15 μM, 24 h, luciferase reporter activity
# Experimental: STING pathway activation by the compounds described herein is measured using THP1-Dual™ cells (KO-IFNAR2). […] 2 mL of solution A and 2 ml Solution B is mixed and incubated for 20 min at room temperature (RT). […] Luciferase reporter activity is then measured. EC50 values are calculated by using standard methods known in the art. […] Luciferase reporter activity is then measured. EC50 values are calculated by using standard methods known in the art.
pEC50: −log10 of the molar value.
# pEC50 listing for each entry below

As a guide, the following entries are already answered.
>>> test_result("O=C(Nc1ccnc(C2CCN(CC(F)(F)F)CC2)c1)Nc1c[nH]c2cc(F)c(F)cc12 [Compound 213]")
"5.30 to 6.00"
>>> test_result("C[C@@H]1CN(c2ncc(NC(=O)Nc3c[nH]c4cc(F)c(F)cc34)cc2Cl)CCO1 [Compound 158]")
"6.00 to 6.70"

Task: Provide value of pEC50 for this record tested with hSTING (Homo sapiens, UniProt Q86WV6, G230A/H232R/R293Q/R71H): O=C(Nc1ccc(N2CC3(C2)CC(F)(F)C3)nc1)Nc1c[nH]c2ccc(Cl)cc12 [Compound 155]
Output: 6.70 to 7.40

---

# pEC50 listing for each entry below
# tested.target: hSTING (Homo sapiens, UniProt Q86WV6, G230A/H232R/R293Q/R71H)
# method.summary: STING reporter assay (luciferase) in THP1-Dual KO-IFNAR2 cells stimulated with 2'3'cGAMP
# test.parameters: 2'3'cGAMP 15 μM, 24 h, luciferase reporter activity
pEC50: −log10 of the molar value.

>>> test_result("O=C(Nc1cnc(N2CCN(CC(F)F)CC2)c(Cl)c1)Nc1c[nH]c2ccc(Cl)cc12")
"6.70 to 7.40"

Task: Provide value of pEC50 for this record tested with hSTING (Homo sapiens, UniProt Q86WV6, G230A/H232R/R293Q/R71H): O=C(Nc1cnc(C2CCN(CC(F)(F)F)CC2)c(F)c1)Nc1c[nH]c2ccccc12
Output: 6.00 to 6.70

Task: Provide value of pEC50 for this record tested with hSTING (Homo sapiens, UniProt Q86WV6, G230A/H232R/R293Q/R71H): O=C(Nc1cn(C2CCC(F)(F)CC2)cn1)Nc1c[nH]c2ccc(Cl)cc12
Output: 5.30 to 6.00

Task: Provide value of pEC50 for this record tested with hSTING (Homo sapiens, UniProt Q86WV6, G230A/H232R/R293Q/R71H): O=C(Nc1cnc(C2CCN(CC(F)(F)F)CC2)c(Cl)c1)Nc1c[nH]c2ccccc12
Output: 6.70 to 7.40

---

# tested.target: hSTING (Homo sapiens, UniProt Q86WV6, G230A/H232R/R293Q/R71H)
# method.summary: STING reporter assay (luciferase) in THP1-Dual KO-IFNAR2 cells stimulated with 2'3'cGAMP
# test.parameters: 2'3'cGAMP 15 μM, 24 h, luciferase reporter activity
# Method: STING pathway activation by the compounds described herein is measured using THP1-Dual™ cells (KO-IFNAR2). […] 2 mL of solution A and 2 ml Solution B is mixed and incubated for 20 min at room temperature (RT). […] Luciferase reporter activity is then measured. EC50 values are calculated by using standard methods known in the art. […] Luciferase reporter activity is then measured. EC50 values are calculated by using standard methods known in the art.
# EC50 listing for each entry below

As a guide, the following entries are already answered.
>>> test_result("C[C@@H]1CN(c2ncc(NC(=O)Nc3c[nH]c4ccc(Cl)cc34)cc2Cl)C[C@H](C)O1")
"0.04 to 0.2 µM"
>>> test_result("COCCN(C(=O)Nc1c[nH]c2ccc(Cl)cc12)c1cnc(C2CCC(F)(F)CC2)c(Cl)c1")
"0.2 to 1 µM"

Task: Provide value of EC50 for this record tested with hSTING (Homo sapiens, UniProt Q86WV6, G230A/H232R/R293Q/R71H): O=C(Nc1cnc(N2CC3(C2)CC(F)(F)C3)c(Cl)c1)Nc1c[nH]c2c(Br)cc(Cl)cc12
Output: 1 to 5 µM

Task: Provide value of EC50 for this record tested with hSTING (Homo sapiens, UniProt Q86WV6, G230A/H232R/R293Q/R71H): O=C(Nc1cnn(C2CCC3(CC2)CC3)c1)Nc1c[nH]c2ccc(Cl)cc12
Output: 0.2 to 1 µM

Task: Provide value of EC50 for this record tested with hSTING (Homo sapiens, UniProt Q86WV6, G230A/H232R/R293Q/R71H): O=C(Nc1cnc(N2CCC3(CC2)CC3)c(Cl)c1)Nc1c[nH]c2ccc(F)cc12
Output: 0.04 to 0.2 µM

Task: Provide value of EC50 for this record tested with hSTING (Homo sapiens, UniProt Q86WV6, G230A/H232R/R293Q/R71H): O=C(Nc1ccc(C2CC(F)(F)C2)c(Cl)c1)Nc1c[nH]c2ccc(Cl)cc12
Output: 0.04 to 0.2 µM

Task: Provide value of EC50 for this record tested with hSTING (Homo sapiens, UniProt Q86WV6, G230A/H232R/R293Q/R71H): O=C(Nc1cnc(N2CCC(F)(F)CC2)c(F)c1)Nc1c[nH]c2ccc(F)cc12
Output: 0.04 to 0.2 µM

---

# tested.target: hSTING (Homo sapiens, UniProt Q86WV6, G230A/H232R/R293Q/R71H)
# Construct: host or cells: THP1-Dual KO-IFNAR2 cells
# method.summary: STING reporter assay (luciferase) in THP1-Dual KO-IFNAR2 cells stimulated with 2'3'cGAMP
# Format: cell-based
# test.parameters: 2'3'cGAMP 15 μM, 24 h, luciferase reporter activity
pEC50: −log10 of the molar value.
# pEC50 listing for each entry below

>>> test_result("CO[C@H]1CCCN(c2ncc(NC(=O)Nc3c[nH]c4cc(F)c(F)cc34)cc2Cl)C1 [Compound 148]")
"6.70 to 7.40"
>>> test_result("O=C(Nc1cnc(C2CCC(F)(F)CC2)c(F)c1)Nc1c[nH]c2ccc(Cl)cc12 [Compound 295]")
"6.70 to 7.40"
>>> test_result("O=C(Nc1ccc(C2CC(F)(F)C2)c(Cl)c1)Nc1c[nH]c2ccccc12 [Compound 246]")
"6.70 to 7.40"

Task: Reported pEC50, molecule O=C(Nc1ccnc(C2CCCN(CC(F)(F)F)C2)c1)Nc1c[nH]c2cc(F)c(F)cc12 (stereo not shown) [Compound 219] : ____
Output: 5.30 to 6.00

Task: Reported pEC50, molecule Cc1cc(NC(=O)Nc2c[nH]c3cc(F)c(F)cc23)cnc1N1CC2(COC2)C1 [Compound 160] : ____
Output: < 4.52

Task: Reported pEC50, molecule O=C(Nc1cnn(C2CC3(C2)CC(F)(F)C3)c1)Nc1c[nH]c2ccc(Cl)cc12 [Compound 234] : ____
Output: 6.70 to 7.40

Task: Reported pEC50, molecule Cc1cc(NC(=O)Nc2c[nH]c3cc(F)c(F)cc23)cnc1N1CC2(CC(O)C2)C1 [Compound 161] : ____
Output: 4.00 to 5.30

Task: Reported pEC50, molecule CCc1cc(NC(=O)Nc2c[nH]c3ccc(Cl)cc23)cnc1N1CCC(F)(F)CC1 [Compound 131] : ____
Output: 6.70 to 7.40

Task: Reported pEC50, molecule O=C(Nc1ccnc(C2CCC(F)(F)CC2)c1)Nc1c[nH]c2ccc(Cl)cc12 [Compound 255] : ____
Output: 6.00 to 6.70

Task: Reported pEC50, molecule O=C(Nc1cnc(C2CCC(F)(F)CC2)c(Cl)c1)Nc1c[nH]c2ccc(O)cc12 [Compound 191] : ____
Output: 6.00 to 6.70

---

# tested.target: hSTING (Homo sapiens, UniProt Q86WV6, G230A/H232R/R293Q/R71H)
# method.summary: STING reporter assay (luciferase) in THP1-Dual KO-IFNAR2 cells stimulated with 2'3'cGAMP
# test.parameters: 2'3'cGAMP 15 μM, 24 h, luciferase reporter activity
experimental.endpoint: EC50

>>> test_result("O=C(Nc1cnc(N2CCN(CCC(F)(F)F)CC2)c(F)c1)Nc1c[nH]c2ccc(F)cc12 [Compound 267]")
"40 to 200 nM"

Task: Reported EC50, molecule COCCO[C@@H]1CCN(c2ncc(NC(=O)Nc3c[nH]c4cc(F)c(F)cc34)cc2C)C1 [Compound 152] : ____
Output: 1000 to 5000 nM

Task: Reported EC50, molecule Cc1nc(NC(=O)Nc2c[nH]c3cc(F)c(F)cc23)cnc1N1CCC(F)(F)CC1 [Compound 175] : ____
Output: 200 to 1000 nM
